Ref: PubChem BioAssay (NCATS)

tested on: HEK293; experiment: Cytotoxic Profiling of Annotated Libraries Using Quantitative High-Throughput Screening (AID 1296008); settings: Five cell lines viability, CellTiter-Glo ATP luminescence, 48-72 h; hits give low values; note: % is set by controls: 0 for no effect and ±100 for the full control effect; nearly all actives have a fitted effect of over 60% in size
Results filed as inconclusive are left out.
max response: recorded values
Readout Type: max response (%)

Compound	Unit String	Observed Value
CC1=CC(=O)C2C(C)(C)CCC[C@]2(C)[C@H]1CO (some centres undefined)	%	1.55
CN1C2CCC1CC(OC(=O)[C@H](CO)c1ccccc1)C2 (some centres undefined)	%	-10.6
C=C[C@]1(C)C[C@H](O)[C@@H]2[C@H](OC(=O)[C@@H]2C)C1/C(C)=C/O[C@@H]1O[C@H](CO)[C@@H](O)[C@H](O)[C@H]1O (some centres undefined)	%	-0.606
CC(=O)OC1C(c2ccccc2)CCC(c2ccccc2)C1OC(C)=O (centres undefined)	%	-10.8
N#C[C@@H]1C[C@H](F)CN1C(=O)CNC1[C@H]2CN(C(=O)c3ccc(F)cc3)C[C@@H]12 (some centres undefined)	%	2.87
O=C(OCC1=CC(O)C2C=CO[C@@H](O[C@@H]3O[C@H](CO)[C@@H](O)[C@H](O)[C@H]3O)C12)c1ccccc1 (some centres undefined)	%	-4.16
COc1c(C)c(OCC(O)C(C)(C)O)cc2c1COC2=O (centres undefined)	%	-24.2
C[C@H](CCC(=O)O)[C@H]1CC[C@H]2[C@@H]3C[C@H](O)[C@@H]4C[C@H](O)CC[C@]4(C)[C@H]3CC[C@]12C	%	0.0594
CCN1CCN(Cc2ccc(NC(=O)Nc3ccc(Oc4cc(NC)ncn4)cc3)cc2C(F)(F)F)CC1	%	-109
C=C(C)[C@@H]1CC[C@]2(C)CC[C@]3(C)[C@H](CC[C@@H]4[C@@]5(C)CC[C@@H](O)C(C)(C)[C@@H]5CC[C@]43C)[C@@H]12	%	-21
OC[C@H]1O[C@@H](Oc2cc(O)c3c(c2)O[C@@H](c2ccc(O)cc2)[C@H](O)C3)[C@H](O)[C@@H](O)[C@@H]1O	%	-5.13
Cc1cc(N2CCN([C@@H]3CN[C@H](C(=O)N4CCSC4)C3)CC2)n(-c2ccccc2)n1	%	-23.9
CC1CC(=O)C2=C(CCC3(O)C(O)c4c(O)cccc4C(=O)C23O)C1 (centres undefined)	%	-13.5
CC(=O)/C=C/[C@H]1[C@](C)(O)[C@@H](O)[C@H](OC(C)=O)C2C(C)(C)CCC[C@@]21C (some centres undefined)	%	-3.84
CC(C)(O)c1ccc2c(c1)C(O)C[C@H]1[C@](C)(C(=O)O)CCC[C@]21C (some centres undefined)	%	0.619
Cc1ccc(C)c(OCCn2cc(C(=O)O)c3ccccc32)c1	%	-0.983
COc1cc2c(cc1OC)CC(=O)N(CCCNC[C@H]1Cc3cc(OC)c(OC)cc31)CC2	%	-6.01
CC(=O)OC1C(O)CC2(C)C(CCC(C)C23Cc2c(O)cc(CO)c(C=O)c2O3)C1(C)C (centres undefined)	%	-11.5
O=C(O)c1ccc(OC2OC(CO)C(O)C(O)C2O)cc1 (centres undefined)	%	-2.82
COC(=O)C1(C)CCC2(C(=O)O)CCC3(C)C(=CCC4C5(C)CC(O)C(OC6OCC(O)C(O)C6O)C(C)(CO)C5CCC43C)C2C1 (centres undefined)	%	0.887
COc1c(/C=C/C(C)(C)O)ccc2c1C(=O)OCc1cc(C)cc(O)c1O2	%	-114
C[C@@H]1C(=O)O[C@H](C)[C@H]1CC(=O)[C@](C)(O)[C@H]1CC[C@@]2(O)C3=CC(=O)[C@@H]4C[C@@H](O)[C@@H](O)C[C@]4(C)C3CC[C@]12C (some centres undefined)	%	-19.4
COC(=O)C1=COC(O[C@@H]2O[C@H](CO)[C@@H](O)[C@H](O)[C@H]2O)[C@H]2[C@@H]1[C@H](OC(=O)CCc1ccc(O)cc1)C[C@]2(C)O (some centres undefined)	%	0.992
C[C@@H]1O[C@@H](O[C@H]2[C@H](O[C@H]3[C@H](O)[C@@H](C(=O)O)O[C@@H](O[C@H]4CC[C@@]5(C)C(CC[C@]6(C)C5CC[C@]57OC[C@@]8(CCC(C)(C)CC85)[C@H](O)C[C@]76C)C4(C)C)[C@@H]3O[C@@H]3O[C@H](CO)[C@@H](O[C@@H]4OC[C@@H](O)[C@H](O)[C@H]4O)[C@H](O)[C@H]3O)O[C@H](CO)[C@H](O)[C@@H]2O)[C@H](O)[C@H](O)[C@H]1O (some centres undefined)	%	-0.169
O=C(O)c1cc2cccc([N+](=O)[O-])c2[nH]1	%	2.87
C=C(C(=O)OC)C1C(O)CC2(C)C(=O)CCC(O)(CO)C2C1O (centres undefined)	%	-2.27
O=C(/C=C/c1ccc(O)cc1)OC1[C@H](O)CC(O)(C(=O)O)C[C@H]1O (some centres undefined)	%	-1.83
CC1=C(CCC(C)O[C@@H]2O[C@H](CO)[C@@H](O)[C@H](O)[C@H]2O)C(C)(C)CCC1=O (some centres undefined)	%	4.11
CC(=O)O[C@@H]1[C@H](O[C@@H]2O[C@@H](CO)[C@H](O)[C@H]2O)[C@@H](O[C@@H]2O[C@@H](C)[C@H](O[C@@H]3OC[C@@H](O)[C@H](O)[C@H]3O)[C@@H](O)[C@H]2O)[C@H](OC(=O)[C@]23CCC(C)(C)C[C@H]2C2=CCC4[C@@]5(C)CC[C@H](O[C@@H]6O[C@H](C(=O)O)[C@@H](O)[C@H](O)[C@H]6O[C@@H]6O[C@H](CO)[C@H](O)[C@H](O)[C@H]6O)[C@@](C)(C=O)C5CC[C@@]4(C)[C@]2(C)CC3)O[C@@H]1C (some centres undefined)	%	-1.69
